- System: SNU-5 cells
- RUN_DESCRIPTION: Cell proliferation assay (SRB or MTT)
- Type: cell-based
- CONDITION: Homo sapiens, SNU-5, 72 h, read-out: anti-proliferative IC50
MEASURED_QUANTITY: IC50 (nM)
Please reply with the bare figure in nM and do not write the unit itself.

Input: Request body: readout IC50, system SNU-5 cells, query `Cn1cc(-c2cnc3nnc(C(F)(F)c4ccc5ncccc5c4)n3n2)cn1` . Return the value.
Output: 0.9

----------
- RUN_DESCRIPTION: Cell proliferation assay, cell panel (SRB or MTT)
- Format: cell-based
- CONDITION: human, panel of cells with low c-Met expression or activation; read-out: cytotoxicity IC50 values
MEASURED_QUANTITY: IC50 at 72 h

Input: Returns the measured IC50 at 72 h for the input molecule. Input: Cn1cc(-c2cnc3nnc(C(F)(F)c4ccc5ncccc5c4)n3n2)cn1 [Simm530]
Output: > 50 µM

Data credit: paper PMC5122374
